target: muscarinic receptors; test: Radioligand binding: displacement of muscarinic agonist 3H-Oxotremorine-M (3H-OXO-M), rat cerebral cortex; design: species or system Hooded Lister rats; conditions: displacement of 2 nM 3H-OXO-M, 2 mM magnesium chloride, 37° C., 30 min
pIC50: −log10 of the molar value.
Respond with Condition met for pIC50 values of 7 and above, Condition not met for values below.

Cn1nnc([C@@H]2CN3CC[C@@H]2C3)n1 (relative stereo) [Example E4] : Condition met
CCn1nnc([C@@H]2CN3CC[C@@H]2C3)n1 (relative stereo) [Example E18] : Condition not met
Cn1ncc(C23CCCN(CC2)C3)n1 (racemic) [Example E1] : Condition met
Cn1ncc(C23CCN(CC2)C3)n1 [Example E10] : Condition met
CCn1ncc(C23CCN(CC2)C3)n1 [Example E16] : Condition not met

Kindly consider the entry below.
Lookup: Could you please find out whether Cn1ncc([C@@H]2CN3CC[C@@H]2C3)n1 (relative stereo) [Example E14] has pIC50 that meets 7 or exceeds it?
Found: Condition met

* * *

molecular target: muscarinic receptors; assay type: binding, Hooded Lister rats; details: displacement of 0.27 nM 3H-QNB, rat cerebral cortex, 37° C., 30 min
I'd be grateful if you could share measured IC50 for these entries.
Numbers only, in µM.

Observe how each entry below is paired with its result.
Cn1ncc(C23CCCN(CC2)C3)n1 (racemic) [Example E1] : 3
Cn1nnc(C23CCCN(CC2)C3)n1 (racemic) : 8.2
CCn1ncc(C23CCN(CC2)C3)n1 : 15.8

For each of the items listed, what is its IC50?
1. Cn1nnc([C@H]2CN3CC[C@@H]2C3)n1 (relative stereo)
2. Cn1nncc1C1CN2CCC1CC2 (racemic)
3. Cn1ncc([C@@H]2CN3CC[C@@H]2C3)n1 (relative stereo)
4. Cn1ncc(C2CN3CCC2CC3)n1 (racemic)
5. CCn1ncc([C@@H]2CN3CC[C@@H]2C3)n1 (relative stereo)
6. Cn1ncc(C23CCN(CC2)C3)n1
7. CCn1nnc([C@@H]2CN3CC[C@@H]2C3)n1 (relative stereo)
8. Cn1nnnc1[C@@H]1CN2CC[C@@H]1C2 (relative stereo)

Found:
[40, 38, 5.7, 6.55, 2.2, 20, 5.5, 95]

For each of the items listed, what is its IC50?
1. Cn1ncc([C@H]2CN3CC[C@@H]2C3)n1 (relative stereo)
2. Cn1nnc([C@@H]2CN3CC[C@@H]2C3)n1 (relative stereo)

Found:
1: 18.5; 2: 3.7

For each of the items listed, what is its IC50?
1. Cn1nnc(C23CCN(CC2)C3)n1
2. CCn1nnc(C2CN3CCC2CC3)n1 (racemic)
3. Cn1nnc(C2CN3CCC2CC3)n1 (racemic) [Example E2]

Found:
1. 56
2. 8.3
3. 5.7

* * *

I'd be grateful if you could share measured log10 IC50 for these entries.
target: muscarinic receptors; assay: Radioligand binding: displacement of muscarinic agonist 3H-Oxotremorine-M (3H-OXO-M), rat cerebral cortex; parameters: species or system Hooded Lister rats; conditions: displacement of 2 nM 3H-OXO-M, 2 mM magnesium chloride, 37° C., 30 min
Values are log10 of IC50 in nM.

Cn1nnc(C23CCN(CC2)C3)n1 : 2.40
Cn1nnnc1[C@@H]1CN2CC[C@@H]1C2 (relative stereo) : 2.54
Cn1ncc(C2CN3CCC2CC3)n1 (racemic) : 1.75
CCn1ncc([C@@H]2CN3CC[C@@H]2C3)n1 (relative stereo) : 2.73
Cn1nnc(C23CCCN(CC2)C3)n1 (racemic) : 2.00

For each of the items listed, what is its log10 IC50?
1. Cn1nnc(C2CN3CCC2CC3)n1 (racemic) [Example E2]
2. CCn1nnc(C2CN3CCC2CC3)n1 (racemic)
3. Cn1ncc([C@H]2CN3CC[C@@H]2C3)n1 (relative stereo)
4. Cn1nnc([C@H]2CN3CC[C@@H]2C3)n1 (relative stereo)
5. Cn1nncc1C1CN2CCC1CC2 (racemic)

Found:
1: 2.36; 2: 3.00; 3: 1.02; 4: 2.51; 5: 2.88

# credit: patent US5217975A
